Exercise: for every item that follows, state its recorded GI50.
System: SF-295
Experiment: NCI tumour cell line growth inhibition, 48 h
Active and inactive are the calls of the source. Cut-off read from the data, not from the text of the source: active = GI50 up to about 1.1 µM and inactive = higher.

### Prompt Can you share its GI50? I mean this molecule: `O=c1oc2ccc(-n3c(=O)c4ccccc4c4ccccc4c3=O)cc2c2ccccc12`
### Response > 100 µM (inactive)

### Prompt Can you share its GI50? I mean this molecule: C[C@]12CCC(N3CCCC3)CC1=CC[C@@H]1[C@@H]2CC[C@]2(C)C(O)[C@H](n3ccnc3)C[C@@H]12 (stereo not given in full)
### Response 35.2 µM (inactive)

### Prompt Can you share its GI50? I mean this molecule: `C=C1C(=O)O[C@@H]2/C=C(\C)CC/C=C(/COC(C)=O)C[C@@H](OC(C)=O)[C@@H]12`
### Response 53.7 µM (inactive)

### Prompt Can you share its GI50? I mean this molecule: `COc1cc2c(OC)c3cc(C)oc(=O)c3c(O)c2c(O)c1-c1c(OC)cc2c(OC)c3cc(C)oc(=O)c3c(O)c2c1O`
### Response 18.6 µM (inactive)

### Prompt Can you share its GI50? I mean this molecule: CN(C)CC1CCCC/C1=N\OC(=O)c1ccccc1 (stereo not given)
### Response > 100 µM (inactive)

----------
Exercise: for every item that follows, state its recorded GI50.
Test system: NCI/ADR-RES
Experiment: NCI tumour cell line growth inhibition, 48 h
The source made the active and inactive calls. Rule as the data show it: active = GI50 up to about 1.1 µM and inactive = higher.

### Prompt Observed GI50 on NCI/ADR-RES for COC(=O)C1CC2CCC1(O[Si](C(C)C)(C(C)C)C(C)C)C(O)C2 (stereo unspecified) , please.
### Response 31.8 µM (inactive)

### Prompt Observed GI50 on NCI/ADR-RES for `Nc1nc(N)c(N=O)c(Nc2ccc(O)cc2)n1` , please.
### Response 1.58 µM (inactive)

### Prompt Observed GI50 on NCI/ADR-RES for `Cn1c(=O)c2nc(SCCN3CCOCC3)[nH]c2n(C)c1=S` , please.
### Response > 100 µM (inactive)

### Prompt Observed GI50 on NCI/ADR-RES for `C[C@]12[C@@H]3CC[C@H]1[C@@H](O)C(=O)N2CC3` , please.
### Response > 100 µM (inactive)

### Prompt Observed GI50 on NCI/ADR-RES for `CS(=O)(=O)Nc1ccc2ccccc2c1` , please.
### Response > 100 µM (inactive)

### Prompt Observed GI50 on NCI/ADR-RES for `COc1cc2c(OC)c3cc(C)oc(=O)c3c(O)c2c(O)c1-c1c(OC)cc2c(OC)c3cc(C)oc(=O)c3c(O)c2c1O` , please.
### Response 17.1 µM (inactive)

### Prompt Observed GI50 on NCI/ADR-RES for `C=CC(=O)N1C/C(=C\c2ccc(OC)cc2)C(=O)/C(=C/c2ccc(OC)cc2)C1` , please.
### Response 3.12 µM (inactive)

### Prompt Observed GI50 on NCI/ADR-RES for `O=c1cccc(Cl)[nH]1` , please.
### Response > 100 µM (inactive)

### Prompt Observed GI50 on NCI/ADR-RES for C#CCC(O)c1ccc(OC)c(OCc2ccccc2)c1 (stereo unspecified) , please.
### Response 82.2 µM (inactive)

### Prompt Observed GI50 on NCI/ADR-RES for CNC(Cc1ccccc1)c1cccc(OC)c1O (stereo unspecified) , please.
### Response > 100 µM (inactive)

### Prompt Observed GI50 on NCI/ADR-RES for CC1=CC(=O)CC2(C)CCC(C(C)CC(=O)CC(C)C)CC12 (stereo unspecified) , please.
### Response 29.6 µM (inactive)

----------
Tested on: Hs-578T
Assay: NCI tumour cell line growth inhibition, 48 h
Activity calls are given as the source filed them. No stated cut-off is given here; in the data, active = GI50 up to about 1.1 µM and inactive = higher. *1 amine or outer side, *2 acyl side, *3 side chain or, on linkers, in order; H or OH if unused. Where a SMILES comes first, the peptide text is derived from it. [ ]: non-standard residue; d: D form. The star is where a group is joined. X31 = CC(=O)N(C)SCC(N[*:1])C(=O)[*:2]; Fmoc = O=C(OCC1c2ccccc2-c2ccccc21)*; For = O=C*
Permitted responses: true (1) (active), false (0) (inactive)

### Prompt Look up the recorded call for `FC(F)(Sc1nc2ccccc2[nH]1)c1nc2ccccc2o1` in this test.
### Response false (0)

### Prompt Look up the recorded call for `CCCCCCc1cc2cc(-c3csc(CC#N)n3)c(=O)oc2cc1O` in this test.
### Response false (0)

### Prompt Look up the recorded call for `Nc1ccc(S(=O)(=O)Nc2cnc3ccccc3n2)cc1` in this test.
### Response true (1)

### Prompt Look up the recorded call for `CCOC(=O)c1sc2nc(SC)nc(N3CCCCC3)c2c1N` in this test.
### Response false (0)

### Prompt Look up the recorded call for `COc1cc([N+](=O)[O-])c(S(=O)(=O)O)cc1NS(=O)(=O)c1ccc(C)cc1` in this test.
### Response false (0)

### Prompt Look up the recorded call for COc1ccccc1NC1=NCC(C)S1 (configuration not stated) in this test.
### Response false (0)

### Prompt Look up the recorded call for `CC(C)(Oc1ccc(Cl)cc1)C(=O)N(C(=O)N1CCC(c2ccccc2)CC1)c1ccccc1` in this test.
### Response false (0)

### Prompt Look up the recorded call for COc1ccc(/C=N\N2CC(=O)N3C4C=CC(CC4)N3C2=O)cc1 (configuration not stated) in this test.
### Response false (0)

### Prompt Look up the recorded call for CCN1C(=O)C(C)S/C1=N\NC(=O)CSc1nc2ccccc2c(=O)n1CC (configuration not stated) in this test.
### Response false (0)

### Prompt Look up the recorded call for CC1OC(OC2C(Oc3cc(O)c4c(c3)O[C@H](c3ccc(O)cc3)CC4=O)OC(CO)C(O)C2O)C(O)C(O)C1O (some centres not stated) in this test.
### Response false (0)

### Prompt Look up the recorded call for `CCOC(=O)Cn1nnc2ccc(Nc3nc4ccccc4nc3-c3ccccc3)cc21` in this test.
### Response false (0)

### Prompt Look up the recorded call for `O=c1cc(-c2ccccc2F)[nH]c2cc3c(cc12)OCO3` in this test.
### Response true (1)

### Prompt Look up the recorded call for `CCOC(=O)c1cn(CC)c2ccc3c(c2c1=O)S(=O)(=O)C=C3` in this test.
### Response false (0)

### Prompt Look up the recorded call for `Sc1ncc(-c2cncc(-c3cnc(S)nc3)n2)cn1` in this test.
### Response false (0)

### Prompt Look up the recorded call for O=C1c2c(O)cc(O)cc2OC(c2ccc(O)cc2O)C1O (configuration not stated) in this test.
### Response false (0)

### Prompt Look up the recorded call for `COc1nc(N=P(c2ccccc2)(c2ccccc2)c2ccccc2)cc(=O)n1C` in this test.
### Response false (0)

### Prompt Look up the recorded call for `Cc1nn(-c2ccccc2)c2c1N=C(C(=O)O)CC(c1ccccc1)=N2` in this test.
### Response false (0)

### Prompt Look up the recorded call for `CCOC(=O)C1=NOC2(C=C(Br)C(=O)C(Br)=C2)C1` in this test.
### Response false (0)

### Prompt Look up the recorded call for CC(=O)OCC1OC(Oc2cc(C)c(O)cc2C/C=C(\C)CC/C=C(\C)C[C@@H](C=C(C)C)OC(C)=O)C(O)C(OC(C)=O)C1OC(C)=O (some centres not stated) in this test.
### Response false (0)

### Prompt Look up the recorded call for COc1cc2c(cc1OC)C1(COc3cc(O)c(O)c(O)c3C1=O)C2 (configuration not stated) in this test.
### Response false (0)

### Prompt Look up the recorded call for CC#CCCCC1(C)CCCNC1=S (configuration not stated) in this test.
### Response false (0)

### Prompt Look up the recorded call for `O=c1oc2ccccc2c(Nc2ccc3c(c2)Sc2ccccc2O3)c1[N+](=O)[O-]` in this test.
### Response false (0)

### Prompt Look up the recorded call for `CCOc1ccccc1/N=C\c1c2ccccc2cc2ccccc12` in this test.
### Response false (0)

### Prompt Look up the recorded call for CC1(C)C2CCC1C(=O)[C@@]1(C=CC(=O)CC1)C2 (some centres not stated) in this test.
### Response false (0)

### Prompt Look up the recorded call for `O=[N+]([O-])c1ccc(/C=C\c2ccc3c(c2)OCO3)c([N+](=O)[O-])c1` in this test.
### Response false (0)

### Prompt Look up the recorded call for CN1CC2=C(N=C(S)NC2c2ccccc2Cl)/C(=C/c2ccccc2Cl)C1 (configuration not stated) in this test.
### Response false (0)

### Prompt Look up the recorded call for `COC(=O)Nc1nc2cc(S(=O)(=O)Nc3ccccn3)ccc2[nH]1` in this test.
### Response false (0)

### Prompt Look up the recorded call for CC(C)SC1SCC2C(=O)N(C)C3(CC3C)C(=O)OCC(NC(=O)c3nc4ccccc4cc3O)C(=O)NC(C)C(=O)N(C)C1C(=O)N(C)C1(CC1C)C(=O)OCC(NC(=O)c1nc3ccccc3cc1O)C(=O)NC(C)C(=O)N2C (configuration not stated) in this test.
### Response true (1)

### Prompt Look up the recorded call for CC(=O)N(C)SCC(NC(=O)C(Cc1ccccc1)NC(=O)OCC1c2ccccc2-c2ccccc21)C(=O)NC(Cc1ccccc1)C(=O)NC(Cc1cn(C=O)c2ccccc12)C(=O)NC(CCCCNC(=O)OCC1c2ccccc2-c2ccccc21)C(=O)NC(C(=O)NC(CSN(C)C(C)=O)C(=O)NC(C(N)=O)C(C)O)C(C)O (configuration not stated) (Fmoc-F[X31]FW(For)K(Fmoc)T[X31]T-NH2; configuration not given here) in this test.
### Response false (0)

### Prompt Look up the recorded call for CC(=O)O[C@@H]1C[C@@]23C[C@@]24CC[C@H](OC2OCC(O)C(O)C2O)C(C)(C)[C@@H]4CC=C3[C@]2(C)C[C@@H]3OC4(C[C@@H](C)[C@@H]3[C@@]12C)OC(O)[C@@]1(C)O[C@@H]41 (some centres not stated) in this test.
### Response false (0)

### Prompt Look up the recorded call for `Cc1cc2nc(-c3c(F)cccc3F)n(Cc3c(F)cccc3F)c2cc1C` in this test.
### Response false (0)

### Prompt Look up the recorded call for `C/C(=N/NC(=S)Nc1cccc(Cl)c1)c1ccccn1` in this test.
### Response true (1)

### Prompt Look up the recorded call for `Nc1ccc(SC23CC4CC(CC(C4)C2)C3)cc1` in this test.
### Response false (0)

### Prompt Look up the recorded call for `CC(=O)Oc1cc(C)c(OC(C)=O)c2c1[C@H]1CC[C@]3(C)[C@@H](OC(C)=O)CC[C@H]3[C@@H]1CC2` in this test.
### Response false (0)

### Prompt Look up the recorded call for `O=C(O)CN1CCN2CCOCCN(CC1)CCN(CC(=O)O)CC2` in this test.
### Response false (0)

### Prompt Look up the recorded call for `O=C1/C(=C/c2cccs2)N=C(c2ccccc2)N1c1nc2ccccc2s1` in this test.
### Response false (0)

### Prompt Look up the recorded call for CCCNC1=Nc2ccccc2NC(C)C1 (configuration not stated) in this test.
### Response false (0)
